What pKi was measured for each of the following?
Assay: Displacement of [3H]-DTG from sigma 2 receptor in rat liver membranes after 120 mins by scintillation counting analysis
Assay type: cell membranes, Membrane
Notebook: values listed as pKi are -log10 of the concentration (mol/L).

So what does the record say about pKi for COc1ccc(C(C)CCN2CCC(Cc3ccccc3)CC2)cc1 (racemic) ?
7.74

Subsequent entry: COc1cccc(C(C)CCN2CCCCC2)c1 (racemic)
7.46

Subsequent entry: COc1ccc(C(C)CCN2CCCCC2)cc1 (racemic)
7.24

###

Molecular target: Sigma non-opioid intracellular receptor 1 (Cavia porcellus, UniProt Q60492)
Sequence (Q60492 whole entry): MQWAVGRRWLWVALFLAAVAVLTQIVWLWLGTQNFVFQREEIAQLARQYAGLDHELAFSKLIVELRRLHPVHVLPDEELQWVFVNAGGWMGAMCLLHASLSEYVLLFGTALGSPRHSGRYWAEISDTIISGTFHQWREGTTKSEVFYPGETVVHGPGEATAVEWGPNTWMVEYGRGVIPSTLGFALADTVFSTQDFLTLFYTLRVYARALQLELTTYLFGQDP
Experiment: Displacement of [3H]-(+)-pentazocine from sigma 1 receptor in guinea pig cerebral cortex membranes after 120 mins by scintillation counting analysis
Note to self: Ki under 20 nM means criterion met, ties and anything higher get criterion not met.

Just wondering, is Ki of CC(CCN1CCOCC1)c1ccc2ccccc2c1 (racemic) below 20 nM?
criterion met

Subsequent entry: CC(CCN1CCCCC1)c1ccccc1 (racemic)
criterion not met

Subsequent entry: COc1ccc(C(C)CCN2CCC(Cc3ccccc3)CC2)cc1 (racemic)
criterion met

Subsequent entry: COc1cccc(C(C)CCN2CCCCC2)c1 (racemic)
criterion not met

Subsequent entry: CC(CCN1CCCCC1)c1ccc2ccccc2c1 (racemic)
criterion met

###

Test: Selectivity ratio of Ki for sigma 2 receptor in rat liver membranes to Ki for sigma 1 receptor in guinea pig cerebral cortex membranes
Format: cell membranes
readout.type: Ratio Ki
Keep it simple and answer with nothing but the number.

So what does the record say about Ratio Ki for COc1cccc(C(C)CCN2CCCCC2)c1 (racemic) ?
0.97

Subsequent entry: CC(CCN1CCC(Cc2ccccc2)CC1)c1ccccc1 (racemic)
3.1

Subsequent entry: CC(CCN1CCCCC1)c1ccc2ccccc2c1 (racemic)
33.3

Subsequent entry: COc1ccc(C(C)CCN2CCCCC2)cc1 (racemic)
2.9

Subsequent entry: CC(CCN1CCCCC1)c1ccccc1 (racemic)
1.22

Subsequent entry: CC(CCN1CCC(Cc2ccccc2)CC1)c1ccc2ccccc2c1 (racemic)
7.6

###

Molecular target: Sigma non-opioid intracellular receptor 1 (Cavia porcellus, UniProt Q60492)
Assay: Displacement of [3H]-(+)-pentazocine from sigma 1 receptor in guinea pig cerebral cortex membranes after 120 mins by scintillation counting analysis
pKi: −log10 of the molar value.
Please use class 1 whenever pKi is not below 7, and class 0 whenever it is.

Check the entry COc1cccc(C(C)CCN2CCC(Cc3ccccc3)CC2)c1 (racemic) : does pKi equal or exceed 7?
class 1

Subsequent entry: COc1cccc(C(C)CCN(C)C)c1 (stereo not drawn)
class 0

Subsequent entry: CC(CCN(C)C)c1ccccc1 (racemic)
class 0

Subsequent entry: CC(CCN1CCC(Cc2ccccc2)CC1)c1ccc2ccccc2c1 (racemic)
class 1

###

Experiment: Displacement of [3H]-DTG from sigma 2 receptor in rat liver membranes after 120 mins by scintillation counting analysis
Type: cell membranes, Membrane
pKi: −log10 of the molar value.
Please use satisfied whenever pKi is not below 7, and not satisfied whenever it is.

Check the entry CC(CCN(C)C)c1ccccc1 (racemic) : does pKi equal or exceed 7?
not satisfied

Subsequent entry: COc1ccc(C(C)CCN(C)C)cc1 (racemic)
not satisfied

Subsequent entry: COc1cccc(C(C)CCN(C)C)c1 (configuration not stated)
not satisfied

Subsequent entry: CC(CCN1CCC(Cc2ccccc2)CC1)c1ccccc1 (racemic)
satisfied

Subsequent entry: CC(CCN1CCCCC1)c1ccc2ccccc2c1 (racemic)
satisfied

###

Assay: Displacement of [3H]-DTG from sigma 2 receptor in rat liver membranes after 120 mins by scintillation counting analysis
Assay type: cell membranes, Membrane
What log10 of Ki was measured for each of the following?
# log10 transformed; quantity=Ki; unit=nM

So what does the record say about log10 of Ki for CC(CCN(C)C)c1ccc2ccccc2c1 (racemic) ?
1.64

Subsequent entry: CC(CCN1CCOCC1)c1ccc2ccccc2c1 (racemic)
1.52

Subsequent entry: COc1cccc(C(C)CCN2CCC(Cc3ccccc3)CC2)c1 (racemic)
1.15

Subsequent entry: CC(CCN1CCOCC1)c1ccccc1 (racemic)
1.85

Subsequent entry: CC(CCN1CCCCC1)c1ccccc1 (racemic)
1.75

Subsequent entry: CC(CCN1CCC(Cc2ccccc2)CC1)c1ccc2ccccc2c1 (racemic)
2.16

###

What Ratio Ki was measured for each of the following?
Assay: Selectivity ratio of Ki for sigma 2 receptor in rat liver membranes to Ki for sigma 1 receptor in guinea pig cerebral cortex membranes
Type: cell membranes
Keep it simple and answer with nothing but the number.

So what does the record say about Ratio Ki for COc1cccc(C(C)CCN2CCC(Cc3ccccc3)CC2)c1 (racemic) ?
4.83

Subsequent entry: COc1ccc(C(C)CCN2CCC(Cc3ccccc3)CC2)cc1 (racemic)
5.14

Subsequent entry: COc1cccc(C(C)CCN(C)C)c1 (centres undefined)
3.62

Subsequent entry: COc1ccc(C(C)CCN(C)C)cc1 (racemic)
2.2

Subsequent entry: CC(CCN1CCOCC1)c1ccc2ccccc2c1 (racemic)
6.1

Subsequent entry: CC(CCN1CCOCC1)c1ccccc1 (racemic)
1.2

Subsequent entry: COc1cccc(C(C)CCN2CCOCC2)c1 (racemic)
0.67

Subsequent entry: CC(CCN(C)C)c1ccc2ccccc2c1 (racemic)
22

Subsequent entry: COc1ccc(C(C)CCN2CCOCC2)cc1 (racemic)
0.89

###

Molecular target: Sigma non-opioid intracellular receptor 1 (Cavia porcellus, UniProt Q60492)
Test: Displacement of [3H]-(+)-pentazocine from sigma 1 receptor in guinea pig cerebral cortex membranes after 120 mins by scintillation counting analysis
What Ki was measured for each of the following?
Respond numerically; units are nM and should not be typed.

So what does the record say about Ki for CC(CCN1CCOCC1)c1ccccc1 (racemic) ?
85

Subsequent entry: COc1ccc(C(C)CCN2CCOCC2)cc1 (racemic)
76

Subsequent entry: COc1cccc(C(C)CCN2CCOCC2)c1 (racemic)
137

Subsequent entry: COc1ccc(C(C)CCN(C)C)cc1 (racemic)
116
